MEASUREMENT_TARGET: UniProtKB P49840
Sequence (P49840 whole entry): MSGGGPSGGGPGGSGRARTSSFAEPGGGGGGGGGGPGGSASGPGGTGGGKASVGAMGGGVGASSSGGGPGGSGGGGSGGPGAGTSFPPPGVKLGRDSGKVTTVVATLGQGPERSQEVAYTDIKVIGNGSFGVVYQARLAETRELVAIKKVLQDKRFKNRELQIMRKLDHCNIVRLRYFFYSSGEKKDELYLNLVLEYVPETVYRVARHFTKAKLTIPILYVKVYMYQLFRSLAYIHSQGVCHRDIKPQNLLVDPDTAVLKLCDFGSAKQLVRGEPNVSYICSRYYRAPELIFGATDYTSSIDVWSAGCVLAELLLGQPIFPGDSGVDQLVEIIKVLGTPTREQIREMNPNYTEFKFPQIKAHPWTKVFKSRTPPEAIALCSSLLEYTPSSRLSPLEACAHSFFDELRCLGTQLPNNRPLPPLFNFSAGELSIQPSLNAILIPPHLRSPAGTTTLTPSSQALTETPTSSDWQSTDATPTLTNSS
ASSAY_COMMENT: NanoBRET cellular target engagement assay, Nanoluc-GSK3A in HEK293 cells
SETTINGS: NanoBRET GSK3α IC50, HEK293 cells, tracer K-8, 2 hours, 37° C
REPORTED_METRIC: IC50

{"COMPOUND": "CCNCc1cncc(NC(=O)c2c(N)ncn(-c3c(Cl)cc(-c4ncco4)cc3Cl)c2=O)c1", "MEASUREMENT_TARGET": "UniProtKB P49840", "REPORTED_METRIC": "IC50", "ENDPOINT_VALUE": "7.4 nM"}
{"COMPOUND": "CCCOc1cc(Cl)c(-n2cnc(N)c(C(=O)Nc3cncc(CNCC)c3)c2=O)c(Cl)c1", "MEASUREMENT_TARGET": "UniProtKB P49840", "REPORTED_METRIC": "IC50", "ENDPOINT_VALUE": "4.2 nM"}
{"COMPOUND": "CNC(C)c1cncc(NC(=O)c2c(N)ncn(-c3c(Cl)cc(C#N)cc3Cl)c2=O)c1 (single isomer, unassigned)", "MEASUREMENT_TARGET": "UniProtKB P49840", "REPORTED_METRIC": "IC50", "ENDPOINT_VALUE": "7.4 nM"}
{"COMPOUND": "NCc1cncc(NC(=O)c2c(N)ncn(-c3c(Cl)cc(C(F)(F)F)cc3Cl)c2=O)c1", "MEASUREMENT_TARGET": "UniProtKB P49840", "REPORTED_METRIC": "IC50", "ENDPOINT_VALUE": "4.4 nM"}
{"COMPOUND": "COc1cc(C)c(-n2cnc(N)c(C(=O)Nc3cncc(C4CCCCCN4)c3)c2=O)c(C)c1 (single isomer, unassigned)", "MEASUREMENT_TARGET": "UniProtKB P49840", "REPORTED_METRIC": "IC50", "ENDPOINT_VALUE": "6.8 nM"}
{"COMPOUND": "Cc1cc(C(F)F)cc(C)c1-n1cnc(N)c(C(=O)Nc2cncc([C@H]3CCCCN3)c2)c1=O", "MEASUREMENT_TARGET": "UniProtKB P49840", "REPORTED_METRIC": "IC50", "ENDPOINT_VALUE": "1.8 nM"}
{"COMPOUND": "Cc1cc(C)c(-n2cnc(N)c(C(=O)Nc3cncc(C4CCCCCN4)c3)c2=O)c(C)c1 (single isomer, unassigned)", "MEASUREMENT_TARGET": "UniProtKB P49840", "REPORTED_METRIC": "IC50", "ENDPOINT_VALUE": "3.7 nM"}

Origin of values: patent US20260327191A1
